Data provenance: PubChem BioAssay (NCATS)

System: TAB113
Assay: qHTS profiling for inhibitors of Plasmodium falciparum proliferation (AID 504749); note: nearly all actives have a fitted effect of over 60% in size
Conditions: P. falciparum in erythrocytes, SYBR Green DNA, 72 h; series mostly up to 28.7 µM
Results filed as inconclusive are left out. Activity calls are given as the source filed them. Calls come from the whole dose curve; as a rule, active = well fitted inhibition curve with a large enough effect; inconclusive = small, poorly fitted or top-dose-only effect; inactive = flat fitted curve, though single readings scatter.
Field 'call' accepts active, inactive

Would you please look over these solved cases?
CC(=O)OC1CC2CCC1(C)C2(C)C (centres undefined) | inactive
CCC(=O)O[C@@H](OP(=O)(CCCCc1ccccc1)CC(=O)N1C[C@H](C2CCCCC2)C[C@H]1C(=O)O)C(C)C (some centres undefined) | inactive
CN(C)CCCCCCN(C)C | inactive
CC1CCC(C(C)C)C(OC(=O)c2ccccc2O)C1 (centres undefined) | inactive

// outcome(item) with item = Cc1cc(CC(C)CC(C)(C)C)n(O)c(=O)c1 (centres undefined)
active

// outcome(item) with item = C1OCOCO1
inactive

// outcome(item) with item = CO/N=C(/C(=O)N[C@@H]1C(=O)N2C(C(=O)O)=CCS[C@H]12)c1csc(N)n1
inactive

// outcome(item) with item = CC1(C)S[C@@H]2[C@H](NC(=O)COc3ccccc3)C(=O)N2[C@H]1C(=O)O
inactive

// outcome(item) with item = C=C[C@]1(C)C[C@@H](OC(=O)CSCCN(CC)CC)[C@]2(C)C(C)CC[C@]3(CCC(=O)[C@H]32)[C@@H](C)[C@@H]1O (some centres undefined)
active
